system: HCT-116; experiment: NCI tumour cell line growth inhibition, 48 h
Active and inactive are the calls of the source. No stated cut-off is given here; in the data, active = GI50 up to about 1.1 µM and inactive = higher.
Classes to choose from: active, inactive

>>> label("O=c1cc(NCc2ccncc2)[nH]c(=O)[nH]1")
"inactive"

input: State the result this test recorded for `CC1=N/C(=C/c2ccc3c(c2)OCO3)C(=O)O1` .
output: inactive

input: For `O=C(O)c1ccccc1/N=N/c1ccc2oc(=O)c(C(=O)Nc3ccccc3)cc2c1` then?
output: inactive

input: Also need COC(=O)C1C(=O)O[C@@H](c2ccc(OC)cc2OC)C1C(=O)OC (stereo not given in full) , thanks.
output: inactive

====

system: LOX IMVI; assay: NCI tumour cell line growth inhibition, 48 h
Active and inactive are the calls of the source. Rule as the data show it: active = GI50 up to about 1.1 µM and inactive = higher.
Please state which outcome applies, choosing from class 1 for active, class 0 for inactive

input: Tell me the recorded outcome of this test for `C[C@H]1COC(c2ccccn2)=N1` .
output: class 0

====

system: MDA-MB-435; assay: NCI tumour cell line growth inhibition, 48 h
The source made the active and inactive calls. Cut-off read from the data, not from the text of the source: active = GI50 up to about 1.1 µM and inactive = higher.
Hi! Could you answer with just one of these? yes (active), no (inactive)

// below: answered molecules
>>> label("COc1cc(NCc2ccc3oc(=O)c(-c4ccccc4)nc3c2)cc(OC)c1OC")
"no"
>>> label("O=S(=O)(N/C(=N\\O)Nc1ccc(Cl)cc1)c1cc2ccccc2s1")
"no"
>>> label("COc1ccc(NC2Oc3cc4c(cc3C(c3cc(OC)c(O)c(OC)c3)C2C)OCO4)cc1 (stereo unspecified)")
"yes"
>>> label("CC1CC/C(=C\\c2ccc(F)cc2)C2=C1C(c1ccc(F)cc1)n1c(s/c(=C\\c3ccc(Cl)cc3)c1=O)=N2 (stereo unspecified)")
"no"
>>> label("CCn1c(SCC(=O)N/N=C/c2ccccc2)nc2ccccc2c1=O")
"no"
>>> label("CC(=O)C1(/N=N/c2ccc(S(N)(=O)=O)cc2)CCOC1=O (stereo unspecified)")
"no"
>>> label("O=C(c1c(F)c(F)c(F)c(F)c1F)n1c(=S)n(C(=O)c2c(F)c(F)c(F)c(F)c2F)c2ccccc21")
"no"
>>> label("Cc1cccc(NC(=S)N/N=C2\\C(=O)Nc3ccccc32)c1")
"no"

input: Recorded test outcome, item `O=C1NC(=S)N/C1=C\c1cccs1`
output: no

input: Another molecule to check: O=C1NC(N2CCCC(CO)C2)=N/C1=C\c1ccc(O)cc1 (stereo unspecified)
output: no

input: Consider next the molecule CC(=O)N(C)SCC(NC(=O)C(Cc1ccccc1)NC(=O)OCc1ccccc1)C(=O)NC(Cc1ccccc1)C(=O)NC(Cc1cn(C=O)c2ccccc12)C(=O)NC(CCCCNC(=O)OCc1ccccc1)C(=O)NC(C(=O)NC(CSN(C)C(C)=O)C(=O)NO)C(C)OCc1ccccc1 (stereo unspecified) in the same way.
output: no

====

Below: a set of entries, each annotated with reported GI50.
system: NCI/ADR-RES; assay: NCI tumour cell line growth inhibition, 48 h
Activity calls are given as the source filed them. Rule as the data show it: active = GI50 up to about 1.1 µM and inactive = higher.

Some molecules with known GI50 results, for comparison:
>>> test_result("CC/C=C/C[C@H](O[Si](C)(C)C(C)(C)C)[C@H]1C[C@H]2O[C@H]([C@@H](O)C#C[Si](C)(C)C)C[C@H]2O1")
"13.3 µM (inactive)"
>>> test_result("CC(C)c1nccn1Cc1ccc(Cl)cc1Cl")
"27 µM (inactive)"
>>> test_result("COc1ccc(C2c3cc4c(cc3OC(N3CCOCC3)C2C)OCO4)cc1OC (stereo not given)")
"3.61 µM (inactive)"

input: Form field - read-out: GI50; system: NCI/ADR-RES; submitted item: `CCn1c(SCC(=O)N/N=C/c2ccccc2)nc2ccccc2c1=O`
output: 4.05 µM (inactive)

input: Entry CC1=C(c2ccc(C)cc2)NC(=S)C(C)C(c2ccc(C)cc2)=N1 (stereo not given) please
output: > 100 µM (inactive)
